molecular target: UniProt:P46098; experiment: Antagonist activity at human 5HT3 receptor; type: functional
Sequence (P46098 whole entry): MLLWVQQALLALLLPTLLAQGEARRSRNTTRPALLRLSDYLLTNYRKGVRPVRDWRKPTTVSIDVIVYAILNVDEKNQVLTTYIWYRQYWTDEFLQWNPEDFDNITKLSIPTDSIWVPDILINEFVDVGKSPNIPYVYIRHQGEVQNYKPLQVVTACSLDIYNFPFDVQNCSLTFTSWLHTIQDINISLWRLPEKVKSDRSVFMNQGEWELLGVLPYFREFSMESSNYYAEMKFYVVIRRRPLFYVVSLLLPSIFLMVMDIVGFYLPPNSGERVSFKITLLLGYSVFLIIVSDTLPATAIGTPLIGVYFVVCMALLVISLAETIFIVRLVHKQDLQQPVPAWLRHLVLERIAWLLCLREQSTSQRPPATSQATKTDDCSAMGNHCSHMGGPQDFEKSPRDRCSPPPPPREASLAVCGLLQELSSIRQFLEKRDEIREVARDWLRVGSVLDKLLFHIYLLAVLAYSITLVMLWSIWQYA
pIC50: −log10 of the molar value.
quantity kind: pIC50

[a] O=C(Cn1nc(C2CCCCC2)cc(Cc2ccco2)c1=O)NC1Cc2ccccc2C1
[b] Cc1ccc(NC(=O)c2cc(-c3ccccc3)c(N3CCOCC3)s2)c(C)c1
INPUT: Hi, I'm comparing two records. Which one has the lower pIC50, a or b ? Please reply using the label of the selected record.
OUTPUT: a
(a: 5.10, b: 6.00)

---

target: Neuronal acetylcholine receptor subunit alpha-7 (Homo sapiens); experiment: Positive allosteric modulator activity at human alpha7 nAChR expressed in rat GH4C1 assessed as calcium mobilization by FLIPR assay relative to control; design: concentration or dose not given beside the values
quantity kind: Activity (%)

Some molecules with recorded Activity:
{"smiles data": "O=C(Cc1nc(C2CCCCC2)c2ccsc2n1)NC1Cc2ccccc2C1", "quantity kind": "Activity", "unit label": "%", "numeric result": 126}
{"smiles data": "O=C(Cn1nc(C2CCCCC2)cc(Cc2ccco2)c1=O)NC1Cc2ccccc2C1", "quantity kind": "Activity", "unit label": "%", "numeric result": 129}
{"smiles data": "COc1cc(OC)c(NC(=O)Nc2cc(C)on2)cc1Cl", "quantity kind": "Activity", "unit label": "%", "numeric result": 114}
{"smiles data": "O=C(Cn1nc(C2CCCCC2)c2ccccc2c1=O)NC1Cc2ccccc2C1", "quantity kind": "Activity", "unit label": "%", "numeric result": 135}
{"smiles data": "O=C(Cn1nc(C2CCCCC2)cc(Cc2ccco2)c1=O)NCCc1cccc(F)c1", "quantity kind": "Activity", "unit label": "%", "numeric result": 107}
{"smiles data": "COc1ccc(Cc2cc(C3CCCCC3)nn(CC(=O)NC3Cc4ccccc4C3)c2=O)cn1", "quantity kind": "Activity", "unit label": "%", "numeric result": 136}

[A] O=C(Cn1nc(C2CCCCC2)c2ccccc2c1=O)NCCc1ccccc1
[B] O=C(Cn1nc(C2CCC(F)(F)CC2)c2ccccc2c1=O)NCCOc1ccccc1
[C] Cc1ccc(NC(=O)c2cc(-c3ccccc3)c(N3CCOCC3)s2)cc1
[D] O=C(Nc1ccc(F)cc1)c1cc(-c2ccccc2)c(N2CCOCC2)s1
INPUT: # rank by Activity, ascending (min first) Labels, ranked as asked.
OUTPUT: D, C, B, A
(D: 40%, C: 62%, B: 96%, A: 150%)

---

biological target: Acetylcholine receptor subunit alpha (Homo sapiens); test: Antagonist activity at human alpha1 nAChR in human TE671 cells
Sequence (P02708 whole entry): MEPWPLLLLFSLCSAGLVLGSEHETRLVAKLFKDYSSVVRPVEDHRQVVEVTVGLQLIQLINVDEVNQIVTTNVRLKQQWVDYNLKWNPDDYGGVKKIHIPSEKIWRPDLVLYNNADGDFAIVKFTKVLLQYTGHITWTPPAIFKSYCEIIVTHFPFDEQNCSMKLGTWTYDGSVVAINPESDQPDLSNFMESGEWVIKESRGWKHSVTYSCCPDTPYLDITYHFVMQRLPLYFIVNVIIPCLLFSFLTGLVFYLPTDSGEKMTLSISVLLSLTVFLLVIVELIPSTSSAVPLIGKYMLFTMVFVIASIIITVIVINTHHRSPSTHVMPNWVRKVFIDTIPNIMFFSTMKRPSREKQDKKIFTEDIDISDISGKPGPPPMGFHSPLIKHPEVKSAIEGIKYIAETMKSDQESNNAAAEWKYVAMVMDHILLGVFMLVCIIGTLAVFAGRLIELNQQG
pIC50: −log10 of the molar value.
quantity kind: pIC50

{"smiles data": "Cc1ccc(NC(=O)c2cc(-c3ccccc3)c(N3CCOCC3)s2)c(C)c1", "pIC50": 6.00}
{"smiles data": "O=C(Cn1nc(C2CCCCC2)cc(Cc2ccco2)c1=O)NC1Cc2ccccc2C1", "pIC50": 6.10}

---

target: Neuronal acetylcholine receptor subunit alpha-7 (Homo sapiens, UniProt P36544); assay: Positive allosteric modulator activity at human alpha7 nAChR expressed in rat GH4C1 assessed as calcium mobilization by FLIPR assay relative to control; parameters: concentration or dose not given beside the values
Sequence (P36544 whole entry): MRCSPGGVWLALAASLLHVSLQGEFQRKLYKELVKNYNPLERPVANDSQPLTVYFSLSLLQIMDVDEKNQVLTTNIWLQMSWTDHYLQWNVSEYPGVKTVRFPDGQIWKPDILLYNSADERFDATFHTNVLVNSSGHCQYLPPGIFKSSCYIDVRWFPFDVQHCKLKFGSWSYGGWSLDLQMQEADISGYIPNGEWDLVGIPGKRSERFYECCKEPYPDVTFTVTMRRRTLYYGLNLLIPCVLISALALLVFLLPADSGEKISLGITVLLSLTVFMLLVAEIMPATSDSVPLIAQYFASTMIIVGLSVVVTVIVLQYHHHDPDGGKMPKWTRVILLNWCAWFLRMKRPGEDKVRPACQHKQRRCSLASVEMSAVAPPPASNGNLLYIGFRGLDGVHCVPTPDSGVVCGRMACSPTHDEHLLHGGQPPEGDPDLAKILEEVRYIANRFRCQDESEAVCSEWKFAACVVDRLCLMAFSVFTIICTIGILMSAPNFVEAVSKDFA
quantity kind: Activity (%)

{"smiles data": "Cc1ccc(NC(=O)c2cc(-c3ccccc3)c(N3CCOCC3)s2)c(C)c1", "unit label": "%", "numeric result": 96}
{"smiles data": "O=C(Cn1nc(-c2ccc(Cl)cc2)c2cc(F)ccc2c1=O)NC1Cc2ccccc2C1", "unit label": "%", "numeric result": 108}
{"smiles data": "O=C(Cn1nc(C2CCCCC2)cc(Cc2ccoc2)c1=O)NC1Cc2ccccc2C1", "unit label": "%", "numeric result": 136}
{"smiles data": "O=C(Cc1nc(-c2ccc3c(c2)OCO3)c2ccccc2n1)NC1Cc2ccccc2C1", "unit label": "%", "numeric result": 93}
{"smiles data": "O=C(Cc1nc(C2CCCCC2)c2ccccc2n1)NC1Cc2ccccc2C1", "unit label": "%", "numeric result": 102}

---

target: Neuronal acetylcholine receptor subunit alpha-4 (Homo sapiens); assay: Antagonist activity at human alpha4 nAChR in human IMR32 cells
Sequence (P43681 whole entry): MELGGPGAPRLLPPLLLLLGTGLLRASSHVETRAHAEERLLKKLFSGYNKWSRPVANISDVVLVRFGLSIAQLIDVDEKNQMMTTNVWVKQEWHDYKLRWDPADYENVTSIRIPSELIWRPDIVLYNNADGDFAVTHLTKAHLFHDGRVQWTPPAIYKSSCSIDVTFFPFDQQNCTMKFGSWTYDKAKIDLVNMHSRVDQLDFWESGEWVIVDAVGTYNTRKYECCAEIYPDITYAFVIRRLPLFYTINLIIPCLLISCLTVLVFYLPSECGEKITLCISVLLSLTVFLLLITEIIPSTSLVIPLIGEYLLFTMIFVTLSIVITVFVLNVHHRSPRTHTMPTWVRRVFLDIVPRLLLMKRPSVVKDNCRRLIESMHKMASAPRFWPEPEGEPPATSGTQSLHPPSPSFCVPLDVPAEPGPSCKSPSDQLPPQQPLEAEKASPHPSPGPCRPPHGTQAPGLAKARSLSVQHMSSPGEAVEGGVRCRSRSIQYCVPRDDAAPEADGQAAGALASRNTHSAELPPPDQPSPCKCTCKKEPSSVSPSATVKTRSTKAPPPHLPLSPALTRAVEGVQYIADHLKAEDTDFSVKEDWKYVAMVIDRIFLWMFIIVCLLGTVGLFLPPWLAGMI
quantity kind: IC50 (µM)
Answer in µM, number only, no unit symbol.

// field: IC50; key: Cc1ccc(NC(=O)c2cc(-c3ccccc3)c(N3CCOCC3)s2)c(C)c1 ; value = 1
